assayed-system: T1, EsCas13d, nuclease-dead (Eubacterium siraeum, UniProt B0MS50, R295A;H300A;R849A;H854A)
T1 sequence: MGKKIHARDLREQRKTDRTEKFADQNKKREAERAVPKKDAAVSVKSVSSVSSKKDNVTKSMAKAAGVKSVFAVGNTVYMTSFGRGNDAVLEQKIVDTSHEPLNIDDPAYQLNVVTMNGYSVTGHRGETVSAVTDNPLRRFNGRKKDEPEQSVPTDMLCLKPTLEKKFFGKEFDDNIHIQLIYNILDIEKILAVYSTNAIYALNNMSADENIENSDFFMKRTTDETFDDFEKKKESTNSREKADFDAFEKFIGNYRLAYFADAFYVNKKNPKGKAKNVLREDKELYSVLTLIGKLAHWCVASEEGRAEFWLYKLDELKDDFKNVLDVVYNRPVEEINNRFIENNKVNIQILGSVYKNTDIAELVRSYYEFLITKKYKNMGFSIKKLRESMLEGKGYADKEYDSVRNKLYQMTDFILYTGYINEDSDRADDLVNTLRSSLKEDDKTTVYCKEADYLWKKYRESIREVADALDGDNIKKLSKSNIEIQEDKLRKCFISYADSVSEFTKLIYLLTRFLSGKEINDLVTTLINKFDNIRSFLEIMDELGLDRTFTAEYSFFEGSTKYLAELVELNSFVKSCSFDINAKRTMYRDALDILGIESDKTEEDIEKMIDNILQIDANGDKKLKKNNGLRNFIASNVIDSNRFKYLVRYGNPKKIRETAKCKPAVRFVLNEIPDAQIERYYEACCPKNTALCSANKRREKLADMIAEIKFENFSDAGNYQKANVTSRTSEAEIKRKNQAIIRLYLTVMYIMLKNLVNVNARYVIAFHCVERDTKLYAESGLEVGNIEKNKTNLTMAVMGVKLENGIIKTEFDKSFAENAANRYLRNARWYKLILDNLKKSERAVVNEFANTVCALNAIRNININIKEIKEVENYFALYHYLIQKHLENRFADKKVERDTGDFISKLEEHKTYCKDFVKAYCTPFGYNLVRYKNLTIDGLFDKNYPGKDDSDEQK
protocol-details: crRNA (strand 1, pre-loaded); Mg2+; 40 mM Tris-HCl pH 7.5, 150 mM NaCl, 6 mM MgCl2, 1 mM DTT, 0.1% Tween-20, 0.2 mg/ml BSA; 25 C; 10 min per concentration, then washed
particulars: tags: His6-TwinStrep-SUMO cleaved; N-terminal SNAP kept (SNAP-Surface 488); label: 3' end held by stalled T7 RNA polymerase
Give pKd for every item shown.
Bear in mind: pKd is minus log10 of a mol/L concentration; give just that figure.

## Input Requested field: pKd. Item: target 1 insG 3' of 21,insC 3' of 9 (mixed) RNA 1: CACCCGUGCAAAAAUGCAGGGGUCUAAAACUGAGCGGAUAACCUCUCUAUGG RNA 2: GGGAAUGGAUCCACAUCUACGAAUUCGUACCGAUAGAGAGGUUACUCCGCUCACCGAGAUCGGAAGAGCACACGU
## Output 7.08

## Input Requested field: pKd. Item: target 1 insG 3' of 2,insG 3' of 1 (mixed) RNA 1: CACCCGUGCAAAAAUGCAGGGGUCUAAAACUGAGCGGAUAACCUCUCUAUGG RNA 2: GGGAAUGGAUCCACAUCUACGAAUUCGUACCAUAGAGAGGUUAUCCGCUCGAGCCGAGAUCGGAAGAGCACACGU
## Output 8.15

## Input Requested field: pKd. Item: target 1 insU 3' of 20,insA 3' of 4 (mixed) RNA 1: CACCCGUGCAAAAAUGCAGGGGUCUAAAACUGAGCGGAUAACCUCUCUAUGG RNA 2: GGGAAUGGAUCCACAUCUACGAAUUCGUACCAUUAGAGAGGUUAUCCGCAUCACCGAGAUCGGAAGAGCACACGU
## Output 8.07

## Input Requested field: pKd. Item: target 1 insC 3' of 13,insA 3' of 2 (mixed) RNA 1: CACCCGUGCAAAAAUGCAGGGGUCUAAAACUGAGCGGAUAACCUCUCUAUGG RNA 2: GGGAAUGGAUCCACAUCUACGAAUUCGUACCAUAGAGAGCGUUAUCCGCUCAACCGAGAUCGGAAGAGCACACGU
## Output 8.05

## Input Requested field: pKd. Item: target 1 MT 5'PFS CAA 3'PFS CCG (mixed) RNA 1: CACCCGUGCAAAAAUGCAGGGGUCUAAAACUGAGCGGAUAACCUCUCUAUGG RNA 2: GGGAAUGGAUCCACAUCUACGAAUUCCAACCAUAGAGAGGUUAUCCGCUCACCGAGAUCGGAAGAGCACACGU
## Output 7.62

## Input Requested field: pKd. Item: target 2 MT 5'PFS AUG 3'PFS ACA (mixed) RNA 1: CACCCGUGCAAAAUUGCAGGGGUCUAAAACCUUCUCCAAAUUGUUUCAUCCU RNA 2: GGGAAUGGAUCCACAUCUACGAAUUCAUGAGGAUGAAACAAUUUGGAGAAGACAAGAUCGGAAGAGCACACGU
## Output 7.89

## Input Requested field: pKd. Item: target 1 G5C,G13A (mixed) RNA 1: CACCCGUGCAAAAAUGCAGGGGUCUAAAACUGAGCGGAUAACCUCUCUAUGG RNA 2: GGGAAUGGAUCCACAUCUACGAAUUCGUACCAUAGAGAAGUUAUCCCCUCACCGAGAUCGGAAGAGCACACGU
## Output 8.24

## Input Requested field: pKd. Item: target 1 insA 3' of 17,insC 3' of 9 (mixed) RNA 1: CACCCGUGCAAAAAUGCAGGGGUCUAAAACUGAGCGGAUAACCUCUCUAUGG RNA 2: GGGAAUGGAUCCACAUCUACGAAUUCGUACCAUAGAAGAGGUUACUCCGCUCACCGAGAUCGGAAGAGCACACGU
## Output 7.91
